Collected phytotoxicity rating ALOMY values appear next to each entry.
Tested on: Alopecurus myosuroides
Assay: Pre-emergence herbicidal evaluation, ALOMY
Type: in vivo
Settings: 0.400 kg/ha, three weeks after treatment

Some solved entries appear below for comparison.
compound	phytotoxicity rating ALOMY
CC1=CC(N(C)C(=O)COc2nnc(C(F)(F)F)s2)=CC(C)(C)C1 [Example 3]	8 (8 - Approaching complete kill)
CCc1nnc(OCC(=O)N(CC)C2=CC(C)(C)CC(C)=C2)s1 [Example 6]	6 (6 - Herbicidal effect)
CC1=CC(N(C(=O)COc2nnc(C(F)(F)F)s2)C(C)C)=CC(C)(C)C1 [Example 4]	7 (7 - Good herbicidal effect)
CC1=CC(N(C)C(=O)COc2nnc(C(F)(F)C(F)(F)F)s2)=CC(C)(C)C1 [Example 7]	5 (5 - Definite injury)
CCc1nnc(OCC(=O)N(C)C2=CC(C)(C)CC(C)=C2)s1 [Example 5]	9 (9 - Complete kill)

In the following, a different compound is considered.
[in] Endpoint output: phytotoxicity rating ALOMY of CCc1nnc(OCC(=O)N(C2=CC(C)(C)CC(C)=C2)C(C)C)s1 [Example 11] . Value?
[out] 8 (8 - Approaching complete kill)

* * *

Recorded phytotoxicity rating HORVW, one value per entry.
Tested on: Hordeum vulgare
Test: Post-emergence herbicidal evaluation, HORVW
Settings: 0.200 kg/ha, three weeks after treatment

smiles.representation	value.measured
CCc1nnc(OCC(=O)N(C)C2=CC(C)(C)CC(C)=C2)s1	0 (0 - No effect)
CC1=CC(N(C(=O)COc2nc3ccccc3o2)C(C)C)=CC(C)(C)C1	0 (0 - No effect)
CC1=CC(N(C)C(=O)COc2nnc(C(F)(F)F)s2)=CC(C)(C)C1	0 (0 - No effect)
CCc1nnc(OCC(=O)N(CC)C2=CC(C)(C)CC(C)=C2)s1	0 (0 - No effect)
CCN(C(=O)COc1nnc(C(F)(F)F)s1)C1=CC(C)(C)CC(C)=C1	0 (0 - No effect)
CC1=CC(N(C(=O)COc2nnc(C(F)(F)F)s2)C(C)C)=CC(C)(C)C1	1 (1 - Trace effect)

[in] Short answer please: phytotoxicity rating HORVW, Hordeum vulgare, entry `CC1=CC(N(C)C(=O)COc2nnc(C(F)(F)C(F)(F)F)s2)=CC(C)(C)C1`
[out] 0 (0 - No effect)

[in] Item: `CCc1nnc(OCC(=O)N(C2=CC(C)(C)CC(C)=C2)C(C)C)s1`
[out] 0 (0 - No effect)

[in] Quick one: `CC1=CC(N(C)C(=O)COc2nc3ccccc3o2)=CC(C)(C)C1`
[out] 0 (0 - No effect)

[in] Let us now turn to `CCN(C(=O)COc1nc2ccccc2o1)C1=CC(C)(C)CC(C)=C1`
[out] 2 (2 - Slight effect)

[in] Here is the next compound: `CCN(C(=O)COc1nnc(C(F)(F)C(F)(F)F)s1)C1=CC(C)(C)CC(C)=C1`
[out] 0 (0 - No effect)

* * *

Overview of recorded phytotoxicity rating LOLPE for various compounds
Tested on: Lolium perenne
Experiment: Pre-emergence herbicidal evaluation, LOLPE
Format: in vivo
Settings: 0.800 kg/ha, three weeks after treatment

Sample records with phytotoxicity rating LOLPE:
smiles.representation	phytotoxicity rating LOLPE
CC1=CC(N(C)C(=O)COc2nnc(C(F)(F)C(F)(F)F)s2)=CC(C)(C)C1	9 (9 - Complete kill)
CCN(C(=O)COc1nnc(C(F)(F)F)s1)C1=CC(C)(C)CC(C)=C1	9 (9 - Complete kill)
CCc1nnc(OCC(=O)N(C2=CC(C)(C)CC(C)=C2)C(C)C)s1	9 (9 - Complete kill)

[in] Param item = `CCc1nnc(OCC(=O)N(CC)C2=CC(C)(C)CC(C)=C2)s1` ; retrieve measured phytotoxicity rating LOLPE.
[out] 7 (7 - Good herbicidal effect)

[in] Next: `CC1=CC(N(C)C(=O)COc2nc3ccccc3o2)=CC(C)(C)C1`
[out] 8 (8 - Approaching complete kill)

[in] Cool, now `CC1=CC(N(C)C(=O)COc2nnc(C(F)(F)F)s2)=CC(C)(C)C1`
[out] 9 (9 - Complete kill)

Values from patent US6339042B1
